Entries and their measured Fluorescence intensity, fluorescence competitive binding assay, OBP11 follow.
Molecular target: SfurOBP11 (Sogatella furcifera)
Experiment: biochemical
Assay type: binding
Settings: ligand concentration 14, replicate 2
Please give only the number in your answer, with no unit.

Worked examples, 2 molecules total:
> print(dat)
                                   molecule  endpoint.value
1  CC(C)COC(=O)CCCCC(=O)OCC(C)C [DA(diisobutyl adipate)]           20124
2  C=C(C)C1CC=C(C)CC1 (single isomer, unassigned; (+)) [(+)-limonene]           19676

Turning now to a further molecule:
I would be grateful if you could share the reported Fluorescence intensity, fluorescence competitive binding assay, OBP11 for CCCCCC(C)=O .
20368

---

Target: SfurOBP11 (Sogatella furcifera, UniProt V5T6E3)
Sequence (V5T6E3 entry or part of it): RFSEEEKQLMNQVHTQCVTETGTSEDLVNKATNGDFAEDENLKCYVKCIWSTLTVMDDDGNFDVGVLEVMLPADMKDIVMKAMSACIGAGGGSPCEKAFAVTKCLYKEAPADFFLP
Assay: biochemical
Type: binding
Details: ligand concentration 10, replicate 3
Recorded Fluorescence intensity, fluorescence competitive binding assay, OBP11 for the following molecules
Field format: numeric only.

Solved entries:
> print(dat)
                                 molecule                             system.tested  endpoint.value
1          CCCCCCCCCCCCCC [n-tetradecane]  SfurOBP11 (Sogatella furcifera, UniProt V5T6E3)           30741
2            c1ccc2ccccc2c1 [naphthalene]  SfurOBP11 (Sogatella furcifera, UniProt V5T6E3)           29736
3    O=C(c1ccccc1)c1ccccc1 [benzophenone]  SfurOBP11 (Sogatella furcifera, UniProt V5T6E3)           17435
4  CC(=O)/C=C/C1=C(C)CCCC1(C)C [β-Ionone]  SfurOBP11 (Sogatella furcifera, UniProt V5T6E3)           22447
5                CCCCCC=O [caproaldehyde]  SfurOBP11 (Sogatella furcifera, UniProt V5T6E3)           23459

State the recorded Fluorescence intensity, fluorescence competitive binding assay, OBP11 for this entry: CC(=O)c1ccccc1 [acetophenone]
23566

Next molecule: CCCCCCCCCCC [n-hendecane]
30522

One more molecule: Cc1ccc(C(C)C)cc1 [4-isopropyltoluene]
25958

Ok, now CCCCCCCCCCCCCCCC [n-hexadecane]
20353

Try this molecule too: C=CC(C)(O)CCC=C(C)CCC=C(C)C (mixture of isomers) [nerolidol]
23428

---

Target: SfurOBP11 (Sogatella furcifera)
Test: biochemical
Format: binding
Conditions: ligand concentration 8, replicate 3
Cut-off 30000 on Fluorescence intensity, fluorescence competitive binding assay, OBP11: below means YES, at or above means NO.

> print(dat)
         compound                    system.tested  group.label
1     CCCCCCCCCCC  SfurOBP11 (Sogatella furcifera)           NO
2  CC(=O)c1ccccc1  SfurOBP11 (Sogatella furcifera)          YES

Moving on to another compound below.
Please state whether Fluorescence intensity, fluorescence competitive binding assay, OBP11 is below 30000 for CCCCCCCCCCCCCCCC
YES

---

# Fluorescence competitive binding assay, OBP2 (raw fluorescence reading) per record follows
Biological target: SfurOBP2 (Sogatella furcifera)
Sequence (V5T759 entry or part of it): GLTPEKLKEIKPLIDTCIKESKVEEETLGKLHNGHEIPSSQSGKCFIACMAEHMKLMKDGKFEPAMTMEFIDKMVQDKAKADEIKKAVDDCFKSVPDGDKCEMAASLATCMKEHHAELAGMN
Assay: biochemical
Assay type: binding
Conditions: ligand concentration 18 (unit not given), replicate column 1 of 3
Please reply with the number alone, leaving off any unit.

> print(dat)
                                   molecule  endpoint.value
1  C=C1CC/C=C(\C)CC[C@@H]2[C@@H]1CC2(C)C [β-caryophyllene]           20111
2                CCCCCCC=CCO [2-nonen-1-ol]           17119
3         CCCCCCCCCCCCCCCCCC [n-octadecane]           24040
4  C=C(C)C1CC=C(C)CC1 (single isomer, unassigned; (+)) [(+)-limonene]           13201
5                      CCCCCCCC=O [octanal]           18709

Look up Fluorescence competitive binding assay, OBP2 (raw fluorescence reading) for this molecule: C=CC(C)(O)CCC=C(C)C (centres unmarked) [linalool]
15874

And the next one, CCCCCCCCCCCCCCCC [n-hexadecane] ?
14498

Continue with CCCCCC=O [caproaldehyde]
16224

Please give the result for CCCCCCCCCCOCCCCCCCCCC [didecyl ether] too.
50240

Item: CCCCCC(C)=O [2-heptanone]
17551

Now consider O=C(c1ccccc1)c1ccccc1 [benzophenone] .
12436

Values were extracted from paper PMC6409085.
